# Test system: T1, recombinant human SOD1 (biomol, Hamburg) (human, UniProt P00441 2-154, limits assumed)
# T1 construct: Bought protein; also called recombinant human superoxide dismutase 1; Recombinant SOD1
# T1 sequence (P00441 2-154 limits assumed): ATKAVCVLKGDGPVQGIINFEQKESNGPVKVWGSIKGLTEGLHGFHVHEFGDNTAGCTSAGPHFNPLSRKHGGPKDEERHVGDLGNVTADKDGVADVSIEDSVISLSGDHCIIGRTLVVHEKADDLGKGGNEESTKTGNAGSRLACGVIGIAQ
# Assay: direct ELISA, recombinant human SOD1 coated at 30 µg/ml
Reported property: EC50 (nM)
Numbers only, in nM.

Binder	EC50 (nM)
NI-204.10D12 (antibody, V domains shown) VH: EVQLVESGGDLVRPGGSLRLSCVASGFTFSNYWMHWVRQAPGQRPVWVSRTNTDGRNTAYADYAKGRFTISRDNAKSTLYLQLNSLRAEDTAVYFCARLRRNVADQITHNYYMDVWGKGTLVTVSS VL: EIVLTQSPGSLAVSLGERATINCKSSQTVLYNNKNYLAWYQQKPGQPPKLLISWASSRESGVPDRFSGSGSGTDFTLTISSLQAEDVAVYYCQHYYGTPVTFGGGTKVEIK	35

Parameters: items (list). Returns: EC50 for each item.
1. NI-204.10A8 (antibody, human IgG1, V domains shown) VH: EVQLVESGAEVKEPGSSVRVSCKTSGGSFNRHVITWVRQAPGQGLEWMGEIIPFFGTPKYAPKFQGRVTIIADASTSTFFLDVKSLTSEDTALYFCWIVVVSVVQRREDFWGQGILVTVSS VL: EIVLTQSPSSLSASVGDTVTITCRSSQNISNYLSWFQHKPGKAPRILVYAASTLQTGVPSRFSGRGSGTIFTLSITSLQSEDYATYYCQQNDKIPRTFGQGTKVEIK
2. NI-204.9F6 (antibody, human IgG1, V domains shown, also called NI-209.9F6) VH: EVQLVESGGGLVQPGGSLRLSCAVSGFTFDTFAMSWVRQAPGKGLEWVSAITASSSKTYYADSVKGRFTISRDNSRNTVYLRLSSLRADDTAVYFCARPKGAHSGLYIESAFDLWGPGTMVTVSS VL: SYVLTQPPSVSVSAGQTASITCSADMLGDTYVSWYQKRPGQSPVLLIYQDSKRPSEIPERFSGSSSEDTATLTITGTQALDEAAYYCQVWDRRTTTYVFGPGTEVTVL
3. NI-204.12G7 (antibody, human IgG1, V domains shown) VH: EVQLVESGAEVKKPGASVTLSCKASGYTFTAYYIHWVRQAREQGLEWMGVINPSTGTTFYAQNFPDRVSVTRDTSTSTVFMELHNLKSEDTAVYYCARAISEHGSGSYSPYYWGQGTLVTVSS VL: SYVLTQPPSVSVSLGQMAAITCSGEALPKKYGYWYQQKPGQVPVLLIYRDVERPSGVPDRFSGSSSGTMVTLTISGVQAEDEADYYCLSADSSGTWVFGGGTKLTVL

1: 2.2; 2: 117; 3: 0.36
